Test: P. aeruginosa biofilm formation inhibitors, primary screen, PAO1 strain, BacTiter-Glo luminescence, LB-PBS (AID 1144)
Conditions: 12 h, higher = more signal
Class Yes: z-score at least 0.2. Class No: z-score below 0.2.

Task item: Check the entry CC(C)[C@@H](OCc1ccccc1)[C@H](C)C=NOC[C@@H](C)[C@H](OCc1ccccc1)C(C)C : does z-score equal or exceed 0.2?
Reply: Yes

Task item: Determine whether this compound has z-score no lower than 0.2: N#Cc1ccc(NN2C(C(O)c3cccc4ccccc34)C=CC3C(=O)N(c4ccccc4)C(=O)C32)cc1 (stereo not given)
Reply: No

Task item: Please indicate if the recorded z-score for COC(=O)[C@H](C)NC(=O)CCC1CC(OC(=O)NCCc2ccc(F)cc2)CC2(CCCC(COC(=O)NCC(c3ccccc3)c3ccccc3)O2)O1 (stereo not given in full) meets or exceeds 0.2.
Reply: No

Task item: Check this compound for z-score at or above 0.2: CO[C@H]1COC(=O)[C@@H]2CCCN2C(=O)CC=C[C@@H](C)[C@H](OC)COC(=O)CC=C[C@@H]1C
Reply: No

Task item: Reported z-score reaches at least 0.2 for CCOC(=O)C1=CC[C@H]2C(=O)N(CC)C(=O)[C@@H]12 ?
Reply: No

###

Assay: binders from COS7 lysate, DM2A8 probe, primary screen, torsin A project, cell lysate, small-molecule microarray, fluorescence 635/667 (AID 1065)
Conditions: higher = more signal, COS7 lysate expressing mutant human TOR1A
measurement type: composite z-score
Form: value (number only, do not type unit).

# annotated cases, reported composite z-score shown
{"compound smiles": "CC(C)CON=C1[C@H]2CCn3c(=O)n(-c4ccccc4)c(=O)n3[C@H]2[C@H](O)[C@@H]2O[C@H]12", "experimental value": -0.0519}
{"compound smiles": "COC(=O)C1=C(C)N(Cc2ccccc2)[C@]23O[C@](C(=O)OC)(C(=O)N2[C@@H]1c1ccccc1)[C@H]1CCOC(=O)[C@H]13", "experimental value": 0.601}
{"compound smiles": "CC[C@@H](c1ccccc1)n1c(=O)n2n(c1=O)[C@H]1[C@H](O)[C@@H]3O[C@@H]3C(=NOCC=C(C)CCC=C(C)C)[C@H]1CC2", "experimental value": 0.138}

Consider now this further molecule.
GET /value?item= CO[C@H]([C@@H](C)[C@H](OC)c1ccccc1)[C@H](C)[C@@H](OC)[C@H](C)C(C)=O &field=composite z-score returns -0.292

###

Tested on: Fibrinogen (Alexa647-labelled)
Assay: fibrinogen binders on compound microarrays, profiling panel, artefact control for SMM control-protein annotation, biochemical, small-molecule microarray, 635/667 nm fluorescence (AID 1131);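 note: z-score merges 667 nm fluorescence with per-spot signal-to-noise over triplicate slides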
Details: fibrinogen-A647 binding fluorescence, higher = more signal
In this scheme, each record receives a class according to its composite z-score; the ranges are class A = under 0.4, class B = from 0.4 up to 0.8, class C = 0.8 and over

# example entries with known answers
{"compound smiles": "COC(=O)[C@@H]1CCCN1C(=O)[C@@H](C)CO", "assay system": "Fibrinogen (Alexa647-labelled)", "group": "class C"}
{"compound smiles": "CC(C)(C)OC(=O)CC[C@]1(C(=O)NCc2ccccc2)N=C(c2ccc(OCCCO)cc2)O[C@H]1c1ccccc1", "assay system": "Fibrinogen (Alexa647-labelled)", "group": "class C"}
{"compound smiles": "O=C1C[C@@H](O)[C@@H](O)[C@@H]2[C@@H]3C(=O)N(Cc4ccc5c(c4)OCO5)C(=O)[C@@H]3CC[C@@H]12", "assay system": "Fibrinogen (Alexa647-labelled)", "group": "class A"}
{"compound smiles": "COc1ccc([Si](C)(C)[C@@H]2[C@@H](CCO)O[C@]3(C(=O)N(Cc4ccc(NC(C)=O)cc4)c4ccccc43)[C@H]2C)cc1", "assay system": "Fibrinogen (Alexa647-labelled)", "group": "class C"}
{"compound smiles": "CO[C@@H]1COC(=O)[C@@H]2CCCN2C(=O)[C@@H](C)COC(=O)[C@H](COCc2ccccc2)NC(=O)CC=C[C@H]1C", "assay system": "Fibrinogen (Alexa647-labelled)", "group": "class A"}

Task item: Please let me know in which category the item COCCOC(=O)N1C(=O)[C@@]2(c3cc(C#CC4(O)CCCCCC4)ccc31)[C@H](c1ccc(OCCO)cc1)N1[C@H](c3ccccc3)[C@H](c3ccccc3)OC(=O)[C@H]1[C@@H]2C(=O)NC[C@H](O)c1ccccc1 belongs.
Reply: class C

Task item: Could you tell me which band COCC(=C=CC[C@@H](O)c1ccccc1OCCO)CCO belongs to?
Reply: class B

Task item: Please indicate the class for CC(C)CON=C1C[C@@H](O)[C@@H](O)[C@@H]2[C@@H]3C(=O)N(Cc4ccccc4)C(=O)[C@@H]3CC[C@@H]12 based on its composite z-score.
Reply: class A

Task item: Please classify: O=C1[C@H]2[C@H]3[C@H](O)[C@H](O)CC(=NOCc4ccccc4)[C@@H]3CC[C@H]2C(=O)N1C1CCCCC1
Reply: class A

Task item: Exam item: assign C[C@H](c1ccccc1)N1C(=O)[C@H]2[C@@H]3C(=CC[C@H]2C1=O)C(=O)[C@H]1O[C@H]1[C@H]3O to the correct category.
Reply: class A

Task item: Note: place this molecule into its band. Item: CC(C)=CCCC(C)=CCON=C1[C@H]2CCn3c(=O)n(Cc4cc5c(cc4Cl)OCO5)c(=O)n3[C@H]2[C@H](O)[C@@H]2O[C@H]12
Reply: class B

Task item: Form: Item = C[C@@H]1C=CCC(=O)OC[C@H](C)C(=O)OC[C@H]2O[C@H]1C=C[C@H]2O ; Class = ?
Reply: class A

###

Test: CREB reporter modulators under forskolin, primary screen, cell-based, PC12, CRE-LacZ reporter, forskolin-stimulated (AID 1146);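 note: PC12 cells with 6xCRE LacZ reporter stimulated by forskolin 10 µM; beta-galactosidase reporter signal reflecting CREB driven transcription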
Settings: luminescence, 4.5 h, higher = more signal, called active from +8 up or from −8 down
Active and inactive are the calls of the source.
The reader will find reported z-score values listed item by item below.

Previously resolved entries follow.
{"molecule": "O=C1[C@H]2[C@H]3[C@H](O)[C@H](O)CC(=NOCc4ccccc4)[C@H]3CC[C@H]2C(=O)N1c1cccc(Oc2ccccc2)c1", "experimental value": "-0.271 (inactive)"}
{"molecule": "CC(CCN1CCc2nc(-c3ccccc3)c(-c3ccccc3)cc2C1)=NOC[C@@H](C)[C@H](OCc1ccccc1)C(C)C", "experimental value": "-0.17 (inactive)"}
{"molecule": "CCN1C(=O)[C@H]2[C@H]3[C@H](O)[C@H](O)CC(=NOCC=C(C)CCC=C(C)C)[C@H]3CC[C@H]2C1=O", "experimental value": "-0.323 (inactive)"}
{"molecule": "[N-]=[N+]=NCc1ccccc1C[C@]1(C(=O)NCc2ccccc2)N=C(c2ccc(OCCCO)cc2)O[C@H]1c1ccccc1N=[N+]=[N-]", "experimental value": "-0.951 (inactive)"}
{"molecule": "C[C@H](c1ccccc1)N1C(=O)[C@H]2[C@@H]3C(=CC[C@H]2C1=O)C(=O)[C@H]1O[C@H]1[C@H]3O", "experimental value": "4.29 (inactive)"}

Just so you know, measured z-score for CCOC(=O)C1=CCC(c2cc3ccccc3[nH]2)NC1 (configuration not stated) came out at 0.464 (inactive)

What the record says about COc1ccc([Si](C)(C)[C@H]2[C@H](CCO)O[C@@]3(C(=O)N(Cc4cccc(NC(=O)[C@H](C)O)c4)c4ccccc43)[C@@H]2C)cc1 : z-score is -0.878 (inactive)

So for CCN1C(=O)[C@H]2[C@H]3[C@H](O)C=CC(=O)[C@@H]3CC[C@H]2C1=O , the logged z-score turned out to be 0.069 (inactive)

Notebook: Cc1ccc(F)cc1S(=O)(=O)N[C@@H]1CCN(Cc2ccc(CC(C)C)cc2)C1 , z-score read as 0.673 (inactive)

So, COCCCNC(=O)[C@@]1(C)c2ccccc2C(=O)N(Cc2ccc(OC(F)(F)F)cc2)[C@H]1c1ccc(CO)cc1 ? Its z-score was -0.0912 (inactive)

The reported z-score of the molecule NCCCCCNC(=O)[C@@H]1C[C@@H]2C(=O)N3CCC[C@H]3C(=O)N2[C@@H]1c1cccc(OCCO)c1 was 0.325 (inactive)

The value of z-score measured for the molecule O=C1[C@H]2[C@H]3[C@H](O)[C@H](O)CC(=NOCc4ccccc4)[C@H]3CC[C@H]2C(=O)N1c1ccc(F)cc1F turned out to be -0.14 (inactive)

Lab book: z-score of O=C1CCCC2OC12C(O)CCc1ccccc1 (configuration not stated) noted as 0.0396 (inactive)

Entry O=C1NC(=O)C2C1C=CC(C(O)Cc1ccccc1)N2Nc1ccccn1 (configuration not stated) — recorded z-score = 0.589 (inactive)

Looking up Cc1ccc(S(=O)(=O)N[C@@H]2COC(=O)[C@H](C)COC(=O)CC=C[C@H]2C)cc1 , I found its z-score recorded as -0.262 (inactive)

Entry CCc1cccc(NC(=O)O[C@H]2[C@H](OC(=O)Nc3ccc4c(c3)OCO4)[C@@H](OC(=O)Nc3ccc4c(c3)OCO4)[C@@H](OC)O[C@@H]2CO)c1 ; z-score = -0.684 (inactive)

// sample O[C@@H](Cc1ccccc1)[C@H]1C2C=CCCC(c3ccccc3)=C2CN1Cc1cccc(Cl)c1 (some centres not stated) , its z-score was 1.44 (inactive)
